tested on: Pichia kudriavzevii; assay: Antifungal activity against Candida krusei after 24 hrs by serial dilution method; assay type: functional
Bridge positions count the residues as written; N and C are the ends. Square brackets hold non-standard residues; d marks the D form. Peptide text beside a SMILES is read from it. * marks the point of attachment. pTerphenylCO(4''-OnC5H11) = CCCCCOc1ccc(-c2ccc(-c3ccc(C(=O)*)cc3)cc2)cc1; 2Naphthoyl(6-heptyloxy) = CCCCCCCOc1ccc2cc(C(=O)*)ccc2c1; 2Naphthoyl(6-octyloxy) = CCCCCCCCOc1ccc2cc(C(=O)*)ccc2c1; Pro(4S-NH2) = N[C@@H]1CN[C@H](C(=O)O)C1; hTyr = N[C@@H](CCc1ccc(O)cc1)C(=O)O; Orn = NCCC[C@H](N)C(=O)O
Measurement type: MIC80 (µg/mL)
Please state the figure in µg/mL; there is no need to write the unit.

For orientation, consider the following solved cases.
Compound | Quantitative result
CCCCCCCOc1ccc2cc(C(=O)N[C@H]3CCCNC(=O)[C@@H]4C[C@H](N)CN4C(=O)[C@H](CCCCN)NC(=O)[C@H](CCc4ccc(O)cc4)NC(=O)[C@@H]4CCCN4C(=O)[C@H](C(C)C)NC3=O)ccc2c1.Cc1ccc(S(=O)(=O)O)cc1 ({2Naphthoyl(6-heptyloxy)}-[Orn]VP[hTyr]K[Pro(4S-NH2)]; lactam 1-C) | 2
CCCCCCCCOc1ccc2cc(C(=O)N[C@H]3CCCNC(=O)[C@@H]4C[C@H](N)CN4C(=O)[C@H](CCCN)NC(=O)[C@H](CCc4ccc(O)cc4)NC(=O)[C@@H]4CCCN4C(=O)[C@H](C(C)C)NC3=O)ccc2c1.Cc1ccc(S(=O)(=O)O)cc1 ({2Naphthoyl(6-octyloxy)}-[Orn]VP[hTyr][Orn][Pro(4S-NH2)]; lactam 1-C) | 2

For the next question, use this compound.
For CCCCCOc1ccc(-c2ccc(-c3ccc(C(=O)N[C@H]4CCCNC(=O)[C@@H]5C[C@H](N)CN5C(=O)[C@H](CCCCN)NC(=O)[C@H](CCc5ccc(O)cc5)NC(=O)[C@@H]5CCCN5C(=O)[C@H](C(C)C)NC4=O)cc3)cc2)cc1.Cc1ccc(S(=O)(=O)O)cc1 ({pTerphenylCO(4''-OnC5H11)}-[Orn]VP[hTyr]K[Pro(4S-NH2)]; lactam 1-C) the compound record lists MIC80 as 2
